Biological target: T1, N-terminal asparagine amidohydrolase 1 (NTAN1) C75S mutant (human, UniProt Q96AB6 1-310, C75S)
T1 construct: N-terminal asparagine amidohydrolase 1 (NTAN1), human, full length, 310 residues; codon-optimized synthetic gene in pET-21a(+); catalytic Cys75 changed to Ser; C75S is not in the list of mutants in section 2.2; No step that cleaves the tag is described; source: E. coli Rosetta 2(DE3), purified as for NTAN1 (Ni2+ chelating, Q anion exchange, Superdex 200)
T1 sequence (looked up): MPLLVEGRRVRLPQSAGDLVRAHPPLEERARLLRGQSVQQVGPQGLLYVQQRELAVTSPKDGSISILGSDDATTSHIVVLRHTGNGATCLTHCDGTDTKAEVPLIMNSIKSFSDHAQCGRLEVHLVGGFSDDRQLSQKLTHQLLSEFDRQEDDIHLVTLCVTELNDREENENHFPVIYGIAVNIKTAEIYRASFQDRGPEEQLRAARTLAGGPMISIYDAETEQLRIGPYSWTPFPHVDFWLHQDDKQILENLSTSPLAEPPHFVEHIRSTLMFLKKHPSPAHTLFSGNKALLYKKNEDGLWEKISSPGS
Assay: SPR; NTAN1 C75S amine-coupled to a CM5 chip (3000 RU), Biacore T200; peptides at 1.95-62.50 μM injected for 120 s, 30 μL/min; 150 mM NaCl, 10 mM HEPES-NaOH pH 7.2, 0.1 mM TCEP, 0.001% polysorbate 20; 1:1 Langmuir model
Conditions: both partners purified
quantity measured: Kd

For record NAAAR (model substrate peptide with N-terminal Asn; source: synthetic peptide) [NAAAR peptide] the listed Kd is 4670 nM

For record NLAAR (model substrate peptide with N-terminal Asn; also called NLAAR pentapeptide; source: synthetic peptide) [NLAAR peptide] the listed Kd is 26.8 nM
